# Experimental protocol: activity coefficient (dimensionless); of the first substance listed, at infinite dilution; xn = mol fraction of the nth substance listed
# Run parameters: 328.15 K; Liquid; x1 = 0
Respond with Yes for activity coefficient values of 0.5 and above, No for values below.

Molecule	Class
CO [methanol] + CCCCCCCCCCCCCC[P+](CCCCCC)(CCCCCC)CCCCCC.FC(F)(F)C(F)(F)[P-](F)(F)(F)(C(F)(F)C(F)(F)F)C(F)(F)C(F)(F)F	Yes
C=CCCCCC [1-heptene] + CCCCCCCCCCCCCC[P+](CCCCCC)(CCCCCC)CCCCCC.FC(F)(F)C(F)(F)[P-](F)(F)(F)(C(F)(F)C(F)(F)F)C(F)(F)C(F)(F)F	Yes
C1CCCCC1 [cyclohexane] + CCCCCCCCCCCCCC[P+](CCCCCC)(CCCCCC)CCCCCC.FC(F)(F)C(F)(F)[P-](F)(F)(F)(C(F)(F)C(F)(F)F)C(F)(F)C(F)(F)F	No
CCCCCCCC [octane] + CCCCCCCCCCCCCC[P+](CCCCCC)(CCCCCC)CCCCCC.FC(F)(F)C(F)(F)[P-](F)(F)(F)(C(F)(F)C(F)(F)F)C(F)(F)C(F)(F)F	Yes

----------
# Experimental protocol: activity coefficient (dimensionless); of the first substance listed, at infinite dilution; xn = mol fraction of the nth substance listed
# Run parameters: 308.15 K; Liquid; x1 = 0
Observed property: activity coefficient

Compound	Value
C=CCCCCCC [oct-1-ene] + CCCCCCCCCCCCCC[P+](CCCCCC)(CCCCCC)CCCCCC.FC(F)(F)C(F)(F)[P-](F)(F)(F)(C(F)(F)C(F)(F)F)C(F)(F)C(F)(F)F	0.67
CCCCC [pentane] + CCCCCCCCCCCCCC[P+](CCCCCC)(CCCCCC)CCCCCC.FC(F)(F)C(F)(F)[P-](F)(F)(F)(C(F)(F)C(F)(F)F)C(F)(F)C(F)(F)F	0.61
CCCCCC [hexane] + CCCCCCCCCCCCCC[P+](CCCCCC)(CCCCCC)CCCCCC.FC(F)(F)C(F)(F)[P-](F)(F)(F)(C(F)(F)C(F)(F)F)C(F)(F)C(F)(F)F	0.66

----------
# Experimental protocol: activity coefficient (dimensionless); of the first substance listed, at infinite dilution; xn = mol fraction of the nth substance listed
# Run parameters: 308.15 K; Liquid; x1 = 0
Think of 0.5 as a floor: if activity coefficient stands on it or above, it is true (1); beneath it, false (0).

Molecule	Class
CCCCCCCC [octane] + CCCCCCCCCCCCCC[P+](CCCCCC)(CCCCCC)CCCCCC.FC(F)(F)C(F)(F)[P-](F)(F)(F)(C(F)(F)C(F)(F)F)C(F)(F)C(F)(F)F	true (1)
c1ccccc1 [benzene] + CCCCCCCCCCCCCC[P+](CCCCCC)(CCCCCC)CCCCCC.FC(F)(F)C(F)(F)[P-](F)(F)(F)(C(F)(F)C(F)(F)F)C(F)(F)C(F)(F)F	false (0)
CO [methanol] + CCCCCCCCCCCCCC[P+](CCCCCC)(CCCCCC)CCCCCC.FC(F)(F)C(F)(F)[P-](F)(F)(F)(C(F)(F)C(F)(F)F)C(F)(F)C(F)(F)F	true (1)
C#CCCCCCC [1-octyne] + CCCCCCCCCCCCCC[P+](CCCCCC)(CCCCCC)CCCCCC.FC(F)(F)C(F)(F)[P-](F)(F)(F)(C(F)(F)C(F)(F)F)C(F)(F)C(F)(F)F	true (1)
C1CCCC1 [cyclopentane] + CCCCCCCCCCCCCC[P+](CCCCCC)(CCCCCC)CCCCCC.FC(F)(F)C(F)(F)[P-](F)(F)(F)(C(F)(F)C(F)(F)F)C(F)(F)C(F)(F)F	false (0)
C=CCCCCC [1-heptene] + CCCCCCCCCCCCCC[P+](CCCCCC)(CCCCCC)CCCCCC.FC(F)(F)C(F)(F)[P-](F)(F)(F)(C(F)(F)C(F)(F)F)C(F)(F)C(F)(F)F	true (1)
CCCO [propan-1-ol] + CCCCCCCCCCCCCC[P+](CCCCCC)(CCCCCC)CCCCCC.FC(F)(F)C(F)(F)[P-](F)(F)(F)(C(F)(F)C(F)(F)F)C(F)(F)C(F)(F)F	true (1)
C=CCCCC [hex-1-ene] + CCCCCCCCCCCCCC[P+](CCCCCC)(CCCCCC)CCCCCC.FC(F)(F)C(F)(F)[P-](F)(F)(F)(C(F)(F)C(F)(F)F)C(F)(F)C(F)(F)F	true (1)
C#CCCCCC [1-heptyne] + CCCCCCCCCCCCCC[P+](CCCCCC)(CCCCCC)CCCCCC.FC(F)(F)C(F)(F)[P-](F)(F)(F)(C(F)(F)C(F)(F)F)C(F)(F)C(F)(F)F	false (0)
CCO [ethanol] + CCCCCCCCCCCCCC[P+](CCCCCC)(CCCCCC)CCCCCC.FC(F)(F)C(F)(F)[P-](F)(F)(F)(C(F)(F)C(F)(F)F)C(F)(F)C(F)(F)F	true (1)

----------
Attribute: activity coefficient
# Experimental protocol: activity coefficient (dimensionless); of the first substance listed, at infinite dilution; xn = mol fraction of the nth substance listed
# Run parameters: 328.15 K; Liquid; x1 = 0
Observed property: activity coefficient

Molecule	Observed property	Value
C=CCCCC [hex-1-ene] + CCCCCCCCCCCCCC[P+](CCCCCC)(CCCCCC)CCCCCC.FC(F)(F)C(F)(F)[P-](F)(F)(F)(C(F)(F)C(F)(F)F)C(F)(F)C(F)(F)F	activity coefficient	0.52
C#CCCCCC [1-heptyne] + CCCCCCCCCCCCCC[P+](CCCCCC)(CCCCCC)CCCCCC.FC(F)(F)C(F)(F)[P-](F)(F)(F)(C(F)(F)C(F)(F)F)C(F)(F)C(F)(F)F	activity coefficient	0.45
CCCCCC [hexane] + CCCCCCCCCCCCCC[P+](CCCCCC)(CCCCCC)CCCCCC.FC(F)(F)C(F)(F)[P-](F)(F)(F)(C(F)(F)C(F)(F)F)C(F)(F)C(F)(F)F	activity coefficient	0.62
CCCO [propan-1-ol] + CCCCCCCCCCCCCC[P+](CCCCCC)(CCCCCC)CCCCCC.FC(F)(F)C(F)(F)[P-](F)(F)(F)(C(F)(F)C(F)(F)F)C(F)(F)C(F)(F)F	activity coefficient	0.87

----------
Listed below: activity coefficient values for each entry.
# Experimental protocol: activity coefficient (dimensionless); of the first substance listed, at infinite dilution; xn = mol fraction of the nth substance listed
# Run parameters: 328.15 K; Liquid; x1 = 0
Observed property: activity coefficient

Compound	Observed property	Value
c1ccccc1 [benzene] + CCCCCCCCCCCCCC[P+](CCCCCC)(CCCCCC)CCCCCC.FC(F)(F)C(F)(F)[P-](F)(F)(F)(C(F)(F)C(F)(F)F)C(F)(F)C(F)(F)F	activity coefficient	0.19
CCCCCCC [heptane] + CCCCCCCCCCCCCC[P+](CCCCCC)(CCCCCC)CCCCCC.FC(F)(F)C(F)(F)[P-](F)(F)(F)(C(F)(F)C(F)(F)F)C(F)(F)C(F)(F)F	activity coefficient	0.7
C=CCCCCCC [oct-1-ene] + CCCCCCCCCCCCCC[P+](CCCCCC)(CCCCCC)CCCCCC.FC(F)(F)C(F)(F)[P-](F)(F)(F)(C(F)(F)C(F)(F)F)C(F)(F)C(F)(F)F	activity coefficient	0.64

----------
Measured activity coefficient, listed per entry for reference.
# Experimental protocol: activity coefficient (dimensionless); of the first substance listed, at infinite dilution; xn = mol fraction of the nth substance listed
# Run parameters: 318.15 K; Liquid; x1 = 0
Observed property: activity coefficient

Molecule	Value
C1CCCCCC1 [cycloheptane] + CCCCCCCCCCCCCC[P+](CCCCCC)(CCCCCC)CCCCCC.FC(F)(F)C(F)(F)[P-](F)(F)(F)(C(F)(F)C(F)(F)F)C(F)(F)C(F)(F)F	0.52
C1CCCC1 [cyclopentane] + CCCCCCCCCCCCCC[P+](CCCCCC)(CCCCCC)CCCCCC.FC(F)(F)C(F)(F)[P-](F)(F)(F)(C(F)(F)C(F)(F)F)C(F)(F)C(F)(F)F	0.42
CCCCC [pentane] + CCCCCCCCCCCCCC[P+](CCCCCC)(CCCCCC)CCCCCC.FC(F)(F)C(F)(F)[P-](F)(F)(F)(C(F)(F)C(F)(F)F)C(F)(F)C(F)(F)F	0.6
C#CCCCCCC [1-octyne] + CCCCCCCCCCCCCC[P+](CCCCCC)(CCCCCC)CCCCCC.FC(F)(F)C(F)(F)[P-](F)(F)(F)(C(F)(F)C(F)(F)F)C(F)(F)C(F)(F)F	0.52
C=CCCCCCC [oct-1-ene] + CCCCCCCCCCCCCC[P+](CCCCCC)(CCCCCC)CCCCCC.FC(F)(F)C(F)(F)[P-](F)(F)(F)(C(F)(F)C(F)(F)F)C(F)(F)C(F)(F)F	0.65
